- experimental.details: basal HepG2 mitochondrial membrane potential changes, profiling panel, cell-based, JC-1 fluorescence, 24 h, 100 nL compound (AID 1167); note: test concentration not given here
- assay.context: higher = more signal
Where z-score equals or exceeds -0.5, the correct label is Condition met; where it does not, the label is Condition not met.

{"compound": "COC(=O)[C@@]1(Cc2ccccc2)[C@H]2c3cc(C(=O)N4CCCC4)n(C[C@H](O)CO)c3C[C@H]2CN1C(=O)c1ccccc1", "assigned.label": "Condition met"}
{"compound": "COC(=O)[C@@]1(Cc2ccc(OC)cc2)[C@H]2c3cc(C(=O)N4CCCC4)n(CCc4cc5ccccc5[nH]4)c3C[C@H]2CN1C(=O)c1ccccc1", "assigned.label": "Condition met"}
{"compound": "NC(=O)N1C(=O)C2C(C1=O)C1C=C(CCCO)C2C(c2cccs2)N1Cc1cc2c(cc1Br)OCO2 (stereo not given)", "assigned.label": "Condition met"}
{"compound": "O=C1NC(=O)C2C1C=CC(C(O)c1cc(C(F)(F)F)cc(C(F)(F)F)c1)N2Nc1ccc(Cl)cc1Cl (stereo not given)", "assigned.label": "Condition not met"}

Data provenance: PubChem BioAssay
